Reference source for all entries: patent US20240016931A1

Molecular target: T1, His-tagged human TSLP antigen (huTSLP-his) (human)
T1 construct: Secreted from HEK293E and purified on nickel; whole entry named; also called Human TSLP-his
Experiment: ELISA, coated huTSLP-his;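 also: binding of antibodies to plate-bound TSLP read as absorbance at 450 nm after TMB colour development, EC50 derived from binding curves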
property_label: pEC50
// field semantics: pEC50 = negative decimal log of concentration (mol/L)

Q: pEC50 for hu3-07 (antibody, human IgG1, kappa, V domains shown, IgG1-YTE, kappa) VH: EVQLVQSGAEVKKPGASVKVSCKASGYTFTDDYMNWVRQAPGQRLEWMGIISPYNGGTSYNQKFKGRVTLTVDKSASTAYMELSSLRSEDTAVYYCAREDYDYDGYAMDHWGQGTTVTVSS VL: EIVLTQSPATLSLSPGERATLSCRASSSVSYMHWYQQKPGQAPRPWIYATSNLASGVPARFSGSGSGTSYTLTISRLEPEDFAVYYCQQWSSNRTFGGGTKVEIKR ?
A: 9.41

Q: Request: hu179-01 (antibody, human IgG1, kappa, V domains shown, IgG1-YTE, kappa) VH: EVQLVQSGAEVKKPGSSVKVSCKASGGTFSNYLIEWVRQAPGQGLEWMGVIDPGNGDTNYNENFKGRVTITADKSTSTAYMELSSLRSEDTAVYYCAREDNTGTAFDYWGQGTTVTVSS VL: DIVMTQSPDSLAVSLGERATINCKASQSVSSDVTWYQQKPGQPPKLLIYYVSNHYTGVPDRFSGSGSGTDFTLTISSLQAEDVAVYYCQQHHRFPLTFGQGTKLEIKR
A: 9.90

Q: Request: hu3-13 (antibody, human IgG1, kappa, V domains shown, IgG1-YTE, kappa; also called hu3VH2-H110Y + hu3VL6) VH: EVQLVQSGAEVKKPGASVKVSCKASGYTFTDDYMNWVRQAPGQRLEWMGIISPYNGGTSYNQKFKGRVTLTVDKSASTAYMELSSLRSEDTAVYYCAREDYDYDGYAMDYWGQGTTVTVSS VL: EIVLTQSPATLSLSPGERATLSCRASSSVSYMHWYQQKPGQAPRPWIYATSNLASGVPARFSGSGSGTSYTLTISRLEPEDFAVYYCQQSDSGREFGGGTKVEIKR
A: 9.83

Q: Request: hu179-22 (antibody, human IgG1, kappa, V domains shown, IgG1-YTE, kappa; also called hu179VH1-G56V + hu179VL2) VH: EVQLVQSGAEVKKPGSSVKVSCKASGGTFSNYLIEWVRQAPGQGLEWMGVIDPGNVDTNYNENFKGRVTITADKSTSTAYMELSSLRSEDTAVYYCAREDNTGTAFDYWGQGTTVTVSS VL: DIVMTQSPDSLAVSLGERATINCKASQSVSSDVTWYQQKPGQSPKLLIYYVSNHYTGVPDRFSGSGSGTDFTLTISSLQAEDVAVYYCQQHHRFPLTFGQGTKLEIKR
A: 9.12

Q: Request: hu179-04 (antibody, human IgG1, kappa, V domains shown, IgG1-YTE, kappa) VH: EVQLVQSGAEVKKPGSSVKVSCKASGYTFSNYLIEWVRQAPGQGLEWMGVIDPGNGDTNYNENFKGRVTLTADKSTSTAYMELSSLRSEDTAVYYCAREDNTGTAFDYWGQGTTVTVSS VL: DIVMTQSPDSLAVSLGERATINCKASQSVSSDVTWYQQKPGQSPKLLIYYVSNHYTGVPDRFSGSGSGTDFTLTISSLQAEDVAVYYCQQHHRFPLTFGQGTKLEIKR
A: 9.72
